Recorded IC50 for the following compounds
- Target of assay: UniProtKB O43613
- Protocol description: Orexin antagonist activity, intracellular calcium FLIPR assay, RBL-2H3 cells expressing human orexin receptor 1
- Settings: RBL-2H3 cells stably expressing human orexin receptor 1; orexin-A at approx. 80% maximal response; compound added 15 minutes before; read-out: Human Orexin1R IC50
Express it in nM; write the number only.

Some compounds with recorded IC50:
[[record]]
molecule_smiles = "COc1cccc(OC)c1C(=O)N[C@H]1CCC[C@@H]1Nc1cnc(C(F)(F)F)cn1"
outcome_measure = "IC50"
unit_of_measurement = "nM"
result_number = 523

[[record]]
molecule_smiles = "O=C(N[C@H]1CC(F)(F)C[C@@H]1Nc1ccc(OC(F)(F)F)cn1)c1ccccc1-n1nccn1"
outcome_measure = "IC50"
unit_of_measurement = "nM"
result_number = 39

[[record]]
molecule_smiles = "O=C(N[C@H]1CCC[C@@H]1Nc1cnc(C(F)(F)F)cn1)c1c(F)cccc1F"
outcome_measure = "IC50"
unit_of_measurement = "nM"
result_number = 890


Moving on to the next compound.
Check the records and state IC50 for O=C(N[C@H]1CCC[C@@H]1Nc1cnc(C(F)(F)F)cn1)c1ccccc1-n1nccn1
53

---

- Target of assay: human orexin receptor 1 (Homo sapiens (Human))
- Sequence (O43613 whole entry): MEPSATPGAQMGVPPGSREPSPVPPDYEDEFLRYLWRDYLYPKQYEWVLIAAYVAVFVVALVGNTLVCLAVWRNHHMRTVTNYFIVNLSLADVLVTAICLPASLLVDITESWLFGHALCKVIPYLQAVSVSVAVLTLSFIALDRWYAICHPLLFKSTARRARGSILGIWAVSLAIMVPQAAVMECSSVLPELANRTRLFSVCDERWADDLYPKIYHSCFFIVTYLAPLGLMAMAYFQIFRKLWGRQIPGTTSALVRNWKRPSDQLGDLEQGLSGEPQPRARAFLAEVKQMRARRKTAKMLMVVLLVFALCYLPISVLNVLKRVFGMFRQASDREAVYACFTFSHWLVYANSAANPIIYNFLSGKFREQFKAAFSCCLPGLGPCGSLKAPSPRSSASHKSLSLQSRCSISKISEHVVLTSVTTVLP
- Protocol description: Orexin antagonist activity, intracellular calcium FLIPR assay, RBL-2H3 cells expressing human orexin receptor 1
- Settings: RBL-2H3 cells stably expressing human orexin receptor 1; orexin-A at approx. 80% maximal response; compound added 15 minutes before; read-out: Human Orexin1R IC50
Recorded pIC50 for the following compounds
Lab note: report pIC50 as minus log10 of the concentration in molar units, number only.

Given O=C(N[C@H]1CCC[C@@H]1Nc1ncc(C(F)(F)F)cc1F)c1ncccc1-n1nccn1 , report its pIC50 on human orexin receptor 1 (Homo sapiens (Human)).
7.74

Given Cc1nc(C(F)(F)F)cnc1N[C@H]1CCC[C@@H]1NC(=O)c1ccccc1-n1nccn1 , report its pIC50 on human orexin receptor 1 (Homo sapiens (Human)).
7.72

Given CC1(Nc2cnc(C(F)(F)F)cn2)CCCC1NC(=O)c1ccccc1-n1nccn1 (centres unmarked) , report its pIC50 on human orexin receptor 1 (Homo sapiens (Human)).
7.68

Given CC1(Nc2ncc(C(F)(F)F)cn2)CCCC1NC(=O)c1ncccc1-n1nccn1 (centres unmarked) , report its pIC50 on human orexin receptor 1 (Homo sapiens (Human)).
7.38

Given O=C(N[C@H]1CCC[C@@H]1Nc1ncc(C(F)(F)F)nc1C1CC1)c1ccccc1-n1nccn1 , report its pIC50 on human orexin receptor 1 (Homo sapiens (Human)).
7.68

---

- Target of assay: human orexin receptor 1 (Homo sapiens (Human))
- Protocol description: Orexin antagonist activity, intracellular calcium FLIPR assay, RBL-2H3 cells expressing human orexin receptor 1
- Settings: RBL-2H3 cells stably expressing human orexin receptor 1; orexin-A at approx. 80% maximal response; compound added 15 minutes before; read-out: Human Orexin1R IC50
Recorded log10(IC50) for the following compounds
Units before log transform: nM; reported quantity: IC50; transform: log10.

[[record]]
compound = "O=C(N[C@H]1CCC[C@@H]1Nc1cnc(C(F)(F)F)cn1)c1cc(F)ccc1-n1nccn1 [Example 36]"
outcome_measure = "log10(IC50)"
result_number = 2.32

[[record]]
compound = "Cc1cc(C(F)(F)F)cnc1N[C@H]1CCC[C@@H]1NC(=O)c1ncccc1-c1ncccn1 [Example 137]"
outcome_measure = "log10(IC50)"
result_number = 1.53

[[record]]
compound = "O=C(N[C@H]1CCC[C@@H]1Nc1ncc(C(F)(F)F)nc1C1CC1)c1ncccc1-n1nccn1 [Example 142]"
outcome_measure = "log10(IC50)"
result_number = 1.08


Check the records and state log10(IC50) for Cc1cc(C(F)(F)F)cnc1N[C@H]1CCC[C@@H]1NC(=O)c1ccccc1-n1nccn1 [Example 108]
1.38

Check the records and state log10(IC50) for O=C(N[C@H]1CC(F)(F)C[C@@H]1Nc1ccc(OC(F)F)cn1)c1ccccc1-n1nccn1 [Example 157]
2.37

Check the records and state log10(IC50) for CCc1cnc(N[C@H]2CCC[C@@H]2NC(=O)c2ccccc2-n2nccn2)cn1 [Example 114]
3.00

Check the records and state log10(IC50) for O=C(N[C@H]1CCC[C@@H]1Nc1ncc(C(F)(F)F)cn1)c1ccccc1Cl [Example 70]
2.83

These measurements were taken from patent US9156829B2.
